Test system: human leukocytes (basophils)
Assay explanation: Inhibition of IgE-mediated histamine release from human leukocytes (basophils), Procedure A
Type: cell-based
Details: Leukocyte, 1 h; from human basophils; rabbit anti-human IgE as antigen; 60 min at 37° C.; > = no response detected at highest dose indicated; read-out: In Vitro Inhibition of Histamine Release IC50 (μM) Procedure A
Structures can show the parent of a compound that is named as a salt.
Metric name: IC50 (µM)

Compound: CCCCc1ccc(NC(=O)SCCCN2CCN(CCc3ccc(Cl)cc3)CC2)cc1 [Example 27, dihydrochloride]
Metric name: IC50
Recorded measurement: 30
--
Compound: O=C(Nc1ccccc1)SCCN1CCN(Cc2ccc(Cl)cc2)CC1 [Example 37, dihydrochloride]
Metric name: IC50
Recorded measurement: 3
--
Compound: CCCCCCNC(=O)SCCCN1CCN(Cc2ccc(Cl)cc2)CC1 [Example 40, dihydrochloride]
Metric name: IC50
Recorded measurement: 71
--
Compound: O=C(NC1CCCCC1)SCCCN1CCN(Cc2ccc(Cl)cc2)CC1 [Example 6, dihydrochloride]
Metric name: IC50
Recorded measurement: 5
